These entries and their values trace back to ChEMBL document CHEMBL4513216.

- protocolDescription: Toxicity liver stage against HepG2, at 10uM
- Type: cell-based
- Parameters: test concentration 10 uM, cell line HepG2-A16-CD81EGFP
- assayContext: human, HepG2-A16-CD81EGFP cells; read-out: INHIBITION
measuredEndpoint: cytotoxicity at 10 µM (%)
Write it as a number; the unit % goes unstated.

Quote cytotoxicity at 10 µM reported for CCN1CCN(C(=O)CCC2CCN(C(C)CSC)CC2)CC1 (stereo unspecified) please.
-0.0154

Identify measured cytotoxicity at 10 µM associated with Cc1csc(CN(CC2CCCO2)C(=O)c2occc2C)n1 (stereo unspecified)
0.489

Quick one: give measured cytotoxicity at 10 µM for CC[C@@]1(O)CCN(c2ncc(Cl)cc2F)C[C@H]1O
2.38

Give the measured cytotoxicity at 10 µM for C[C@@H]1CN(C(=O)CCCN2CCOCC2)CC[C@@]1(O)C1CCC1
-2.95

Look up cytotoxicity at 10 µM of CCc1c(C)[nH]c(C2(N)CCCC2)nc1=O and report it.
-0.327

Let me know recorded cytotoxicity at 10 µM for COCCNC(=O)c1ccccc1-n1cc(CN)cn1 , thanks.
-23.6

# return recorded cytotoxicity at 10 µM for input COc1cccc(C(C(=O)O)N2CCCN(c3ccnc(C)c3)CC2)c1 (stereo unspecified)
4.98

Read off the recorded cytotoxicity at 10 µM for CNC(=O)C1Cn2ccnc2C2(CCN(Cc3cccc(C)n3)CC2)O1 (stereo unspecified)
7.67

Give the reported value of cytotoxicity at 10 µM for this record: CN(C)CCO[C@H]1CN(C(=O)c2ccc3c(c2)OCO3)[C@@H]2COC[C@H]12
-151

Entry CCc1nnc(CNC2CCc3nc(C(C)C)nn3C2)o1 (stereo unspecified) needs its cytotoxicity at 10 µM filled in; supply it.
-20.6

State its cytotoxicity at 10 µM: c1ccc(OCCN2CCc3c(ncn3C3CC3)C2)cc1
-10.3

Fill in cytotoxicity at 10 µM for record Cc1cccc2cc(CNCCCN3CCOCC3)c(=O)[nH]c12
0.127

Report cytotoxicity at 10 µM for Cn1ccc(C(=O)NCc2ccccc2Cn2ccnc2)cc1=O
9.42

Consider the compound O=c1ncn(-c2ccccc2F)c2ncccc12 and give its recorded cytotoxicity at 10 µM.
-2.26

State its cytotoxicity at 10 µM for this compound: CCCN(Cc1ccccc1)Cn1nc(C)c2c(C)onc2c1=O
-9.98

Give recorded cytotoxicity at 10 µM. COCCO[C@@H]1C[C@H]2CN(C(=O)c3cnccn3)CCN2C1
-8.58

For the compound O=C(CCc1ccccc1)NCC(O)c1c(F)cccc1F (stereo unspecified) , report cytotoxicity at 10 µM.
-0.558

Output cytotoxicity at 10 µM of N#CC1(C(=O)N2CCCN(c3nccs3)CC2)CCCCC1
-5.83

Complete the entry with cytotoxicity at 10 µM for O=C(CCCc1cccs1)N1CCC(N2CCNC2=O)CC1
2.83

For the compound Cc1nc(CC(=O)N2CCCC2Cn2cccn2)cs1 (stereo unspecified) , report cytotoxicity at 10 µM.
-11.2

State its cytotoxicity at 10 µM: COc1cc(CN2CCC(NC(=O)c3cccn3C)C2)cc(OC)c1 (stereo unspecified)
-12.6

Return cytotoxicity at 10 µM for the following compound: CCOCC1CN(S(=O)(=O)C2CC2)Cc2ncn(CC3CC3)c21 (stereo unspecified)
4.44

Return cytotoxicity at 10 µM for the following compound: O=C(NCc1csc(Cc2ccccc2)n1)C1NCCc2[nH]cnc21 (stereo unspecified)
-4.32

For CC(C)c1nc(C2CCCN(C(=O)c3ccc4c(c3)COC4)C2)no1 (stereo unspecified) , write its cytotoxicity at 10 µM.
-7

Look up cytotoxicity at 10 µM of COc1c(C2CCCN2Cc2noc(C(C)C)n2)c(C)nn1C (stereo unspecified) and report it.
-8.93

Answer with the recorded cytotoxicity at 10 µM for the compound listed here: CN(C)Cc1nnc2n1CCN(Cc1ccccn1)CC2
2.05
